Source: patent US10251889B2

# test-target: Tyk2 (human Tyk2 kinase domain, amino acids 886 to 1187) (Homo sapiens (Human), UniProt P29597)
# Sequence (P29597 886-1187): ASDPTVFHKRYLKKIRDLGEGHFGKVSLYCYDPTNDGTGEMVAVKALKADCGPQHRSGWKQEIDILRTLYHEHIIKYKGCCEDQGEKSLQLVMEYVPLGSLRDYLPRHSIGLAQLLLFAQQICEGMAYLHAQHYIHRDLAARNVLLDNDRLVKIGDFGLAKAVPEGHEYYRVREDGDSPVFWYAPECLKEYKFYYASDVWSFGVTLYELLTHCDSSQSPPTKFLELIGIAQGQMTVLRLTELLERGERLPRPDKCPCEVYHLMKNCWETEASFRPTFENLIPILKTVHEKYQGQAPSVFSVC
# test: Tyk2 inhibition assay (Omnia kinase assay)
# Assay type: biochemical
# condition-details: read-out: Tyk2 (% inhibition at 1000 nM); Table 2; 1000 nM test compound
measured-parameter: inhibition at 1 µM (%)
Record the value in %, omitting the unit from your answer.

Answered examples (3):
>>> measured_number("Cc1ncc(F)cc1[C@H]1CCCN1c1ccn2ncc(C(=O)NC3(C)CC3)c2n1 [Example 190]")
13.4
>>> measured_number("O=C(NC1CC1)c1cnn2ccc(N3CCC[C@@H]3c3cncc(F)c3)nc12 [Example 52]")
13.8
>>> measured_number("C[C@@H](NC(=O)c1cnn2ccc(N3CCC[C@@H]3c3cncc(F)c3)nc12)C1CC1 [Example 123]")
14.4

Sure, the documented inhibition at 1 µM for CC1(NC(=O)c2cnn3ccc(N4CCC[C@@H]4c4cncc(F)c4)nc23)CC1 [Example 91] is 14.8
